Hey, just so you know, these numbers are from ChEMBL document CHEMBL1944567.

- measured-on: Low molecular weight protein-tyrosine phosphatase A (Mycobacterium tuberculosis)
- experiment-description: Inhibition of Mycobacterium tuberculosis PTP-A using p-nitrophenyl phosphate as substrate measured for 10 mins by spectrofluorimetry
measure: pIC50
In plain terms, pIC50 is the concentration in mol/L turned into minus its base-10 logarithm.

Take a look at these entries with their results.
- smi: "Cc1ccc(/C=C/C(=O)c2ccc3c(c2)OCO3)o1"
  pIC50: 3.77
- smi: "COc1cccc(OC)c1/C=C/C(=O)c1ccc2ccccc2c1"
  pIC50: 3.67
- smi: "O=C(/C=C/c1ccc2ccccc2c1)c1ccc(Cl)s1"
  pIC50: 4.49

Lab note: measured pIC50 of O=C(/C=C/c1ccc(Cl)c(Cl)c1)c1ccc2c(c1)OCO2 was 3.82

GET /value?item= COc1ccc(C(=O)/C=C/c2ccc3c(c2)OCO3)c(OC)c1 &field=pIC50 returns 4.00

---

- measured-on: Low molecular weight protein-tyrosine phosphatase A (Mycobacterium tuberculosis) (UniProt P9WIA1)
- Sequence (whole entry): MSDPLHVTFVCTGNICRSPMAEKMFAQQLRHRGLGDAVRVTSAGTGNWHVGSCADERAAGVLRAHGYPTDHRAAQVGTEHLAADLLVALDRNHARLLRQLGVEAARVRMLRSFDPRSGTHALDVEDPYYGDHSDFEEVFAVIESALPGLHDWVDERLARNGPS
- experiment-description: Inhibition of Mycobacterium tuberculosis PTP-A using p-nitrophenyl phosphate as substrate at 25 uM measured for 10 mins by spectrofluorimetry
Classification field: Condition met = inhibition at or over 20%; Condition not met = inhibition under 20%.

- smi: "COc1ccc2nc(Cl)c(/C=C/C(=O)c3ccc4ccccc4c3)cc2c1"
  class-label: "Condition met"
- smi: "O=C(/C=C/c1ccccc1F)c1ccc2c(c1)OCO2"
  class-label: "Condition not met"
- smi: "CCCCOc1ccc(/C=C/C(=O)c2ccc3ccccc3c2)cc1"
  class-label: "Condition not met"
- smi: "COc1cc(OC)c(OC)cc1/C=C/C(=O)c1ccc2c(c1)OCO2"
  class-label: "Condition not met"
- smi: "O=C(/C=C/c1cccc(Br)c1)c1ccc2c(c1)OCO2"
  class-label: "Condition not met"
- smi: "Cc1ccc(C(=O)/C=C/c2ccc3ccccc3c2)cc1"
  class-label: "Condition not met"

Query :: Please indicate if the recorded inhibition for O=C(/C=C/c1ccc(-c2ccccc2[N+](=O)[O-])o1)c1ccc2c(c1)OCO2 meets or exceeds 20%.
Result :: Condition not met

Query :: Textbook exercise: given the entry O=C(/C=C/c1ccc2ccccc2c1)c1ccc2ccccc2c1 , state whether its inhibition is greater than or equal to 20%.
Result :: Condition met

Query :: Reported inhibition at or above 20%? O=C(/C=C/c1cccc(Cl)c1)c1ccc2c(c1)OCO2
Result :: Condition met

Query :: Determine whether this compound has inhibition no lower than 20%: O=C(/C=C/c1ccc2c(c1)OCO2)c1ccc([N+](=O)[O-])cc1
Result :: Condition met

Query :: API: above_or_equal(metric=inhibition, cutoff=20%) for item COc1ccc(/C=C/C(=O)c2ccc3c(c2)OCO3)c(OC)c1OC
Result :: Condition met

---

- measured-on: Phosphotyrosine-protein phosphatase PTPB (Mycobacterium tuberculosis) (UniProt P96830)
- Sequence (P96830 as listed by the source): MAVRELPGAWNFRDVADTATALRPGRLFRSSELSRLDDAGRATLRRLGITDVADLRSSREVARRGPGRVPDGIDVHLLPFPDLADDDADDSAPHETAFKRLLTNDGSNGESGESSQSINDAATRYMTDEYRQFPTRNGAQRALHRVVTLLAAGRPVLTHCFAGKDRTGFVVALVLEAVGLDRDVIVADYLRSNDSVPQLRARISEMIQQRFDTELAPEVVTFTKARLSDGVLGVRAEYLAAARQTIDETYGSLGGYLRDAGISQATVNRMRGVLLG
- experiment-description: Inhibition of Mycobacterium tuberculosis PTP-B using p-nitrophenyl phosphate as substrate at 25 uM measured for 10 mins by spectrofluorimetry
measure: inhibition (%)
# output: bare number, implied unit %

Solved cases below.
- smi: "O=C(/C=C/c1ccc(C(F)(F)F)cc1)c1ccc2c(c1)OCO2"
  inhibition [%]: 0
- smi: "COc1cc(/C=C/C(=O)c2ccc(Cl)s2)ccc1OCc1ccccc1"
  inhibition [%]: 19
- smi: "COc1cc(OC)c(/C=C/C(=O)c2ccc3ccccc3c2)c(OC)c1"
  inhibition [%]: 0
- smi: "O=C(/C=C/c1ccc(F)cc1)c1ccc2ccccc2c1"
  inhibition [%]: 14
- smi: "O=C(/C=C/c1ccc2ccccc2c1)c1ccc[nH]1"
  inhibition [%]: 37
- smi: "O=C(/C=C/c1cc(Cl)cc(Cl)c1)c1ccc2ccccc2c1"
  inhibition [%]: 29
- smi: "O=C(/C=C/c1cc2ccccc2nc1Cl)c1ccc2c(c1)OCO2"
  inhibition [%]: 0
- smi: "O=C(/C=C/c1ccc(C(F)(F)F)cc1)c1ccc2ccccc2c1"
  inhibition [%]: 37
- smi: "O=C(O)c1ccc(/C=C/C(=O)c2ccc3ccccc3c2)cc1"
  inhibition [%]: 70
- smi: "COc1cc(OC)c(C(=O)/C=C/c2ccc3ccccc3c2)cc1OC"
  inhibition [%]: 14

Measured inhibition, COc1cccc(C(=O)/C=C/c2ccc3ccccc3c2)c1 : 0
